Collected TGI values appear next to each entry.
Tested on: SNB-19 CNS
Assay: NCI tumour cell line growth inhibition, 48 h

The cases that follow already have their TGI on record.
{"MOLECULE": "CNC12C3C4C1C1C2C3C41C(=O)N[C@H](C(=O)N(C)[C@H](C[C@@H](OC(C)=O)c1nc(C(=O)N[C@@H](Cc2ccccc2)C[C@H](C)C(=O)OC)cs1)C(C)C)C1CC1 (some centres undefined)", "STUDY SYSTEM": "SNB-19 CNS", "RECORDED RESULT": "> 15 µM"}
{"MOLECULE": "CCOc1ccc(N=Nc2ccc(-c3ccc(N=Nc4c(O)ccc5cc(S(=O)(=O)O)cc(S(=O)(=O)O)c45)cc3)cc2)cc1", "STUDY SYSTEM": "SNB-19 CNS", "RECORDED RESULT": "> 100 µM"}
{"MOLECULE": "Nc1ncnc2c1ncn2[C@@H]1C[C@H](NO)[C@@H](O)[C@H]1O", "STUDY SYSTEM": "SNB-19 CNS", "RECORDED RESULT": "> 100 µM"}
{"MOLECULE": "CC1(C)N([O-])[N+](=O)C1(Br)c1ccccc1 (centres undefined)", "STUDY SYSTEM": "SNB-19 CNS", "RECORDED RESULT": "> 100 µM"}
{"MOLECULE": "O=C1c2ccccc2C(=O)c2sc(Nc3ccc(Cl)cc3)nc21", "STUDY SYSTEM": "SNB-19 CNS", "RECORDED RESULT": "9.71 µM"}

# next molecule below
For reference, reported TGI for `NCCn1cnc2nc(NC(=O)c3ccccc3)[nH]c(=O)c21` stands at > 100 µM

---

Tested on: M14 melanoma
Assay: NCI tumour cell line growth inhibition, 48 h
PROPERTY NAME: GI50

The cases that follow already have their GI50 on record.
{"MOLECULE": "NC(=S)N/N=C/c1ccc(OC(=O)COc2ccccc2)cn1", "PROPERTY NAME": "GI50", "RECORDED RESULT": "3.57 µM"}
{"MOLECULE": "COc1cc2c(c(OC)c1OC)C(=O)c1c-2n(CCCN=[N+]=[N-])c(=O)c2cc([N+](=O)[O-])ccc12", "PROPERTY NAME": "GI50", "RECORDED RESULT": "> 100 µM"}
{"MOLECULE": "c1ccc2c(-c3cnn4cc(-c5ccc(N6CCNCC6)cc5)cnc34)ccnc2c1", "PROPERTY NAME": "GI50", "RECORDED RESULT": "0.297 µM"}
{"MOLECULE": "O=C(O)c1cc2cc(O)ccc2[nH]1", "PROPERTY NAME": "GI50", "RECORDED RESULT": "> 100 µM"}
{"MOLECULE": "CC(=O)Oc1ccccc1C(=O)NCCC[Se]C#N", "PROPERTY NAME": "GI50", "RECORDED RESULT": "1.82 µM"}
{"MOLECULE": "CNC12C3C4C1C1C2C3C41C(=O)N[C@H](C(=O)N(C)[C@H](C[C@@H](OC(C)=O)c1nc(C(=O)N[C@@H](Cc2ccccc2)C[C@H](C)C(=O)OC)cs1)C(C)C)C1CC1 (stereo not given in full)", "PROPERTY NAME": "GI50", "RECORDED RESULT": "0.294 µM"}
{"MOLECULE": "O=C(Nc1nc(-c2ccccc2)cs1)c1cc(O)c(O)c(O)c1", "PROPERTY NAME": "GI50", "RECORDED RESULT": "7.9 µM"}
{"MOLECULE": "C=C(CN(C)Cc1ccccc1)c1ccc(C(=O)Nc2ccccc2N)cc1", "PROPERTY NAME": "GI50", "RECORDED RESULT": "13.4 µM"}
{"MOLECULE": "CNC(C)[C@H]1CCC2C3CCC4C[C@@H](N(C)C(=O)c5ccccc5)CC[C@]4(C)C3CC[C@@]21C (stereo not given in full)", "PROPERTY NAME": "GI50", "RECORDED RESULT": "1.3 µM"}

For reference, reported GI50 for `COc1cc(O)c2c(=O)c(OC)c(-c3ccc(OC)c(OC)c3)oc2c1.[Zn+2]` stands at 45.4 µM

---

System: MDA-MB-435
Experiment: NCI tumour cell line growth inhibition, 48 h
Collected TGI values appear next to each entry.

The cases that follow already have their TGI on record.
{"COMPOUND": "CN(C)CCN=C1Nc2ccccc2C(=O)N2CSCC12 (stereo unspecified)", "STUDY SYSTEM": "MDA-MB-435", "RECORDED RESULT": "> 100 µM"}
{"COMPOUND": "O=C(O)c1nnsc1-c1csnn1", "STUDY SYSTEM": "MDA-MB-435", "RECORDED RESULT": "> 100 µM"}
{"COMPOUND": "N=C1N=C(N)S/C1=C\\c1ccc2ncccc2c1", "STUDY SYSTEM": "MDA-MB-435", "RECORDED RESULT": "> 25 µM"}

For reference, reported TGI for `Cc1c(-c2ccccc2)c(C#N)c2nnn(C)c(=O)n12` stands at > 100 µM

For reference, reported TGI for CC1=NN(C(=O)CC(=O)Nc2ccc(Cl)cc2)C(=O)C1N=Nc1ccc(S(=O)(=O)c2ccc(N=NC3C(=O)N(C(=O)CC(=O)Nc4ccc(Cl)cc4)N=C3C)cc2)cc1 (stereo unspecified) stands at > 100 µM

For reference, reported TGI for `Oc1ccc2ccccc2c1NCn1nc(CCCCCCCCc2nn(CNc3c(O)ccc4ccccc34)c(=S)o2)oc1=S` stands at > 100 µM

For reference, reported TGI for `Cc1cc(C)nc(NS(=O)(=O)c2ccc(Nc3nnc(/C=C/c4c(O)ccc5ccccc45)c(=O)n3N)cc2)n1` stands at 57.6 µM

For reference, reported TGI for `O=C1O/C(=C\C=C\CO)C=C1/C=C/CO` stands at > 100 µM

For reference, reported TGI for `O=C1c2ccccc2C(=O)c2sc(Nc3ccc(Cl)cc3)nc21` stands at 2.69 µM

For reference, reported TGI for `COc1cc2oc(-c3cccc(C(=O)Nc4ccc(C)cc4)c3)cc(=O)c2c(OC)c1OC` stands at 7.64 µM

For reference, reported TGI for `N=C(N)SCCN1CCCCC1` stands at 52.7 µM

---

Tested on: KM12 colon
Test: NCI tumour cell line growth inhibition, 48 h
PROPERTY NAME: TGI

The cases that follow already have their TGI on record.
{"MOLECULE": "O=C(Nc1cc(C(F)(F)F)cc(C(F)(F)F)c1)Nc1ccc(OCc2nnc(-c3ccc(Cl)cc3)o2)c(F)c1", "STUDY SYSTEM": "KM12 colon", "TGI": "5.72 µM"}
{"MOLECULE": "COC(=O)/C=C/c1ccc2c(c1)[C@H](C(=O)OC)[C@@H](c1ccc(O)cc1)O2", "STUDY SYSTEM": "KM12 colon", "TGI": "88.1 µM"}
{"MOLECULE": "C[n+]1cc2cc3c(cc2c2ccccc21)OCO3", "STUDY SYSTEM": "KM12 colon", "TGI": "10.1 µM"}
{"MOLECULE": "OCC#CCCCCOCC#Cc1ccccc1C#CCOCCCCC#CCO", "STUDY SYSTEM": "KM12 colon", "TGI": "40.5 µM"}
{"MOLECULE": "Cc1ccc(N(/C=C/C(=O)C(F)(F)F)CC(=O)c2ccc(Cl)c(Cl)c2)cc1", "STUDY SYSTEM": "KM12 colon", "TGI": "15 µM"}

For reference, reported TGI for `C[C@@H]1CC[C@@H]2[C@@H]1[C@H](OC(=O)c1ccc3ccccc3c1)[C@]1(C3CCCCC3)C[C@@H](OC(=O)CO)[C@@]2(C)O1` stands at 26.5 µM

For reference, reported TGI for `COc1ccccc1Nc1nc2ccccc2c2occc12` stands at > 50 µM

For reference, reported TGI for `C=C(C)CCN(C(=O)OC(C)(C)C)c1cc(C(C)C)co1` stands at > 100 µM

---

System: NCI/ADR-RES ovarian
Test: NCI tumour cell line growth inhibition, 48 h; in the data active means GI50 below about 0.43 µM; inactive means the rest
Write down the outcome that applies. Available outcomes: 1.0 (active), 0.0 (inactive)

Examples from the recorded data:
{"COMPOUND": "Cc1cc(S(=O)(=O)Nc2nc3ccccc3[nH]2)c(SCc2ccccc2)cc1Cl", "QUALITATIVE LABEL": 0.0}
{"COMPOUND": "COc1ccc2c(c1)C(=O)c1c-2n(CCCN=[N+]=[N-])c(=O)c2cc(N)ccc12", "QUALITATIVE LABEL": 0.0}
{"COMPOUND": "CC(=O)OC1CC2(O)C(CCC3(C)C(c4ccc(=O)oc4)CCC32O)C2(C)CCC(OC3OC(CO)C(O)C(O)C3O)C=C12 (stereo not given)", "QUALITATIVE LABEL": 1.0}
{"COMPOUND": "CC(=O)[O][Hg][CH2]C1(C)COC(C)([CH2][Hg][O]C(C)=O)CO1 (stereo not given)", "QUALITATIVE LABEL": 0.0}

# input for lookup
Exercise: What is the recorded call for this compound in the test? `Cc1ccc(S(=O)(=O)N[C@@H](Cc2ccccc2)C(=O)CCl)cc1`
Key: 0.0

Value source: PubChem BioAssay (NCI)
